Below, each entry is listed with its recorded IC90.
Tested on: M. tuberculosis H37Rv growth inhibition
measurement.description: Mycobacterium tuberculosis H37Rv growth inhibition, putative kinase inhibitor library, confirmatory dose response (AID 2842);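 note: bacteria incubated one week before Alamar blue readout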
readout.kind: IC90

CSc1cccc2sc(Nc3cccc(Cl)c3)nc12 ... 5.38 µg/mL
CCN1C(=O)CCc2cc(NS(=O)(=O)c3ccc(OCC(C)C)cc3)ccc21 ... 18.3 µg/mL
CC1CCN(S(=O)(=O)c2ccc(C(=O)NNc3nc4c(Cl)cccc4s3)cc2)CC1 ... 24.7 µg/mL
COc1cc(C(=O)Nc2nnc(-c3ccc(C)cc3C)o2)cc(OC)c1OC ... 2.53 µg/mL
CC1CN(c2ncnc3c2c(-c2ccccc2)cn3-c2ccccc2)CC(C)O1 (centres undefined) ... 29.1 µg/mL
CCSc1ccc(CC(=O)Nc2nnc(-c3ccc4c(c3)OCCO4)o2)cc1 ... 3.57 µg/mL
Cc1cccc(C(=O)Nc2nnc(-c3ccccn3)o2)c1 ... 19.3 µg/mL
O=C(Nc1nnc(-c2ccc3c(c2)CCCC3)o1)c1ccc(Cl)cc1Cl ... 0.91 µg/mL
COc1ccc(-c2noc(-c3cc(C(C)C)[nH]n3)n2)cc1 ... 12.2 µg/mL
COC(=O)CSc1ncnc2c1cnn2-c1ccc(F)cc1 ... 4.54 µg/mL
O=C(CC(SCc1ccco1)c1cccc([N+](=O)[O-])c1)c1ccco1 (centres undefined) ... < 0.2 µg/mL
Cc1ccc(-c2nnc(NC(=O)c3ccc([N+](=O)[O-])o3)o2)c(C)c1 ... 0.69 µg/mL
Cc1ccc(C(=O)Nc2nnc(-c3ccncc3)o2)cc1C ... 26.8 µg/mL
N#Cc1ccc(C(=O)Nc2nnc(-c3ccc4c(c3)CCCC4)o2)cc1 ... 1.71 µg/mL
CC1=C(C(=O)Nc2cccc(Cl)c2)C(c2ccc(Br)cc2)NC(=O)N1 (centres undefined) ... 20.3 µg/mL
Cc1ccc(/C(O)=C2\C(=O)C(=O)N(c3ccccn3)C2c2cccc(Br)c2)cc1 (centres undefined) ... 21.4 µg/mL
CCCC(=O)Nc1nnc(-c2ccccc2)o1 ... 22 µg/mL
C=CCN(CC=C)S(=O)(=O)c1ccc(C(=O)Nc2nnc(-c3cc(Cl)ccc3Cl)o2)cc1 ... 12.8 µg/mL
CC(C)c1ccc(-c2csc(NC(=O)c3ccc4c(c3)OCCO4)n2)cc1 ... 3.39 µg/mL
COc1cccc(Nc2nc3ccc(OC)cc3s2)c1 ... 23.3 µg/mL
Cc1ccc(-c2nnc(NC(=O)c3ccc(Cl)s3)o2)c(C)c1 ... 2.01 µg/mL
CC(C)OC(=O)c1ccc(NC(=O)C2COc3ccccc3O2)cc1 (centres undefined) ... 7.2 µg/mL
c1ccc(-c2csc(Nc3nc4cc5c(cc4s3)OCO5)n2)nc1 ... 1.79 µg/mL
COc1cccc(-c2nnc(NC(=O)c3ccccc3Cl)o2)c1 ... 2.69 µg/mL
Cc1cccc2nc(NC(=O)c3ccc(Oc4ccccc4)cc3)sc12 ... 8.53 µg/mL
COc1ccc(-c2nsc(SCC(=O)Nc3ccc(C(C)=O)cc3)n2)cc1 ... 25.9 µg/mL
O=C(Nc1nnc(-c2ccco2)o1)c1cc(Cl)ccc1Cl ... 4.99 µg/mL
O=C(COc1ccc2c3c(c(=O)oc2c1)CCCC3)OC1CCCCC1 ... 9.71 µg/mL
COc1cc(C(=O)Nc2nnc(-c3cc(Cl)ccc3Cl)o2)cc(OC)c1OC ... 28.3 µg/mL
CCCCc1ccc2nc(Nc3nc4ccc(S(C)(=O)=O)cc4s3)sc2c1 ... 31.8 µg/mL
O=C(Nc1nnc(-c2ccccc2Cl)o1)C1=COCCO1 ... 4.3 µg/mL
O=C(Nc1nnc(-c2ccc3c(c2)CCCC3)o1)c1ccco1 ... 0.87 µg/mL
COc1ccc(-c2nnc(NC(=O)c3ccc4c(c3)OCCO4)o2)c(OC)c1 ... 24.7 µg/mL
CC(C)CCn1c(NCCc2ccccc2)nc2c1c(=O)n(C)c(=O)n2C ... 11 µg/mL

Source of measurements: PubChem BioAssay AID2842
